System: resistant strain (selected by Compound No.1) of the Kanzawa spider mite
ASSAY_EXPLANATION: Test 9: effect on a resistant strain (selected by Compound No.1) of the Kanzawa spider mite (LC50)
Assay type: in vivo
RECORDED_CONDITIONS: eggs on kidney bean leaf sections sprayed, 25°C, eight days after the treatment
Below, each of the molecules is paired with its reported LC₅₀ value value.
State the answer as a number, implicitly in ppm.

In [3]: df
Out[3]:
                    structure_smiles_string  measured_value
0  CCOc1ccc(C(C)(C)CCCc2cccc(Oc3ccccc3)c2)cc1             519
1  CCOc1ccc(C(C)(C)CCCc2ccc(F)c(Oc3ccccc3)c2)cc1              94
2  CCOc1ccc([Si](C)(C)CCCc2ccc(F)c(Oc3ccccc3)c2)cc1            1150

Looking up CCOc1ccc(C(C)(C)COCc2cccc(Oc3ccccc3)c2)cc1 , I see its LC₅₀ value listed as 375

---

System: second-instar larvae of the diamond-back moth
ASSAY_EXPLANATION: Test 8: effect on the diamondback moth (residual activity on sprayed potted cabbages)
Assay type: in vivo
RECORDED_CONDITIONS: compound of formula (1) alone 50 ppm; leaves sampled 21 days after treatment; dead larvae 2 days after feeding
ENDPOINT_NAME: Death rate (%)
Respond numerically; units are % and should not be typed.

>>> df
                    structure_smiles_string                           measured_target  endpoint_name  units_symbol  measured_value
0  CCOc1ccc(C(C)(C)CCCc2ccc(F)c(Oc3ccccc3)c2)cc1  second-instar larvae of the diamond-back moth     Death rate             %              10

Short answer on second-instar larvae of the diamond-back moth for CCOc1ccc([Si](C)(C)CCCc2ccc(F)c(Oc3ccccc3)c2)cc1 , Death rate: 15

Entry CCOc1ccc(C(C)(C)COCc2cccc(Oc3ccccc3)c2)cc1 ; assay system second-instar larvae of the diamond-back moth; Death rate recorded at 11

Response field Death rate (second-instar larvae of the diamond-back moth) for item CCOc1ccc(C(C)(C)CCCc2cccc(Oc3ccccc3)c2)cc1 : 40
